- METHOD_SUMMARY: small-molecule microarray binders of probe aDKK1, primary screen, biochemical, biotinylated probe, 635/667 nm fluorescence (AID 1099);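 note: score merges 667nm spot fluorescence with signal to noise across triplicate slides; reference of the scale not given here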
- CONDITION_LABEL: higher = more signal
VALUE_TYPE: composite z-score

The examples below pair each entry with its known result.
>>> observed_measurement("COC(=O)[C@@H]1CC[C@H](C)[C@@H](c2ccc(C)cc2)N1C(=O)c1ccc(C=NOCC[C@@H]2C=C[C@H](OC(C)=O)[C@@H](COC(C)=O)O2)cc1")
-0.33
>>> observed_measurement("C[C@@H](c1ccccc1)N1C(=O)[C@H]2[C@H]3[C@H](O)[C@H](O)CC(=O)[C@H]3CC[C@H]2C1=O")
-0.338
>>> observed_measurement("CCOC(=O)[C@H](CC(C)C)NC(=O)CCC1CC(OC(=O)NCCc2ccc(F)cc2)CC2(CCCC(COC(=O)NCCc3ccc(Cl)cc3)O2)O1 (some centres undefined)")
-0.26

INPUT: Give the value of composite z-score reported for the following: "CC(C)CON=C1[C@H]2CCn3c(=O)n(Cc4cc5c(cc4Cl)OCO5)c(=O)n3[C@H]2[C@H](O)[C@@H]2O[C@H]12"
OUTPUT: -0.304

INPUT: Recall and state the measured composite z-score for "CC(CCN1CCCc2nc(C)c(C)cc21)=NO[C@@H](C)c1cc(-c2c(C)cc(C)cc2C)no1" .
OUTPUT: 0.0311

INPUT: Given the compound "COc1ccc(COC(=O)NN=C2C[C@@H](O)[C@@H](O)[C@@H]3[C@@H]4C(=O)N(c5cccc(Oc6ccccc6)c5)C(=O)[C@@H]4CC[C@@H]23)cc1" , write its reported composite z-score.
OUTPUT: 0.557

INPUT: Complete the entry with composite z-score for "CC(C)CON=C1C[C@@H](O)[C@@H](O)[C@@H]2[C@@H]3C(=O)N(C[C@@H]4CCCO4)C(=O)[C@@H]3CC[C@@H]12"
OUTPUT: 0.52

INPUT: Quote composite z-score reported for "CC(C)CON=C1C[C@@H](O)[C@@H](O)[C@@H]2[C@@H]3C(=O)N(C(C)(C)C)C(=O)[C@@H]3CC[C@H]12" please.
OUTPUT: 0.454

INPUT: Give composite z-score for the following compound: "CCO[C@H](c1cc(OC)cc([N+](=O)[O-])c1OC)[C@H](C)C=CCC(=O)OC"
OUTPUT: -0.295

INPUT: State, in one line, measured composite z-score of CCC1=NOC(CCC2CC(OC(=O)NCc3cccc4c3OCO4)CC3(CCCC(COC(=O)NCCc4ccccc4OC)O3)O2)C1 (centres undefined)
OUTPUT: -0.16
